TEST_TARGET: hCX3CR1 (Homo sapiens)
Sequence (P49238 1-355): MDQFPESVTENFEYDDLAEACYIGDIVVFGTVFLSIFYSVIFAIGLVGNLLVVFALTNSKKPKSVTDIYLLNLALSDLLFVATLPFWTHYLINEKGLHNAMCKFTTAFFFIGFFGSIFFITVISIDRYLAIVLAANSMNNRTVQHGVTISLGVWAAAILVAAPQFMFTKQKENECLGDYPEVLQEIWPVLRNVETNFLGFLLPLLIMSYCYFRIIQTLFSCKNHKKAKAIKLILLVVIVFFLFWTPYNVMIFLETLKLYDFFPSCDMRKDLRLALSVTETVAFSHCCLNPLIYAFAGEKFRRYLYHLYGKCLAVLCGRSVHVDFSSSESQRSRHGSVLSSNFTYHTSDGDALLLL
PROTOCOL: Ga16 assay, CX3CR1 agonism, Ca2+ sensitive photo-protein readout (FLIPRTETRA)
Format: cell-based
Design: expressed in transfected cells; stably expresses a Ca2+ sensitive photo-protein
CONDITION_CONTEXT: human CX3CR1 cell line
Rule: EC50 below 10 µM gives Condition met. Equal to or above 10 µM gives Condition not met.

Does this molecule meet the criterion EC50 < 10 µM? COC1(C)CCN(CC2(CNC(=O)c3cc4c(s3)CCCCCC4)CCC2)CC1 [Example 48] Condition not met

Could you please tell me whether EC50 recorded for CN(C)CC1(CNC(=O)c2cc3c(s2)CCCCCC3)CCCOC1 (stereo not drawn) [Example 37] is less than 10 µM? Condition not met

Take the molecule CC(C)(CNC(=O)c1cc2c(s1)CCCCCC2)CN1CCCC(O)C1 (stereo not drawn) [Example 46] and say whether its EC50 is less than 10 µM. Condition not met

Is the reported EC50 for O=C(NCC1(CN2CCC2)CCOCC1)c1cc2c(s1)CCCCCC2 [Example 35] strictly below 10 µM? Condition not met

Just wondering, is EC50 of CN(C)CC1(CNC(=O)c2cc3c(s2)CCCCCC3)CCCC1 [Example 2] below 10 µM? Condition met
